target: human TLR7 (Homo sapiens (Human)); experiment: HEK-Blue human TLR7 cells NF-κB SEAP reporter assay; format: cell-based; conditions: stimulation for 20 hours
Sequence (Q9NYK1 27-1049): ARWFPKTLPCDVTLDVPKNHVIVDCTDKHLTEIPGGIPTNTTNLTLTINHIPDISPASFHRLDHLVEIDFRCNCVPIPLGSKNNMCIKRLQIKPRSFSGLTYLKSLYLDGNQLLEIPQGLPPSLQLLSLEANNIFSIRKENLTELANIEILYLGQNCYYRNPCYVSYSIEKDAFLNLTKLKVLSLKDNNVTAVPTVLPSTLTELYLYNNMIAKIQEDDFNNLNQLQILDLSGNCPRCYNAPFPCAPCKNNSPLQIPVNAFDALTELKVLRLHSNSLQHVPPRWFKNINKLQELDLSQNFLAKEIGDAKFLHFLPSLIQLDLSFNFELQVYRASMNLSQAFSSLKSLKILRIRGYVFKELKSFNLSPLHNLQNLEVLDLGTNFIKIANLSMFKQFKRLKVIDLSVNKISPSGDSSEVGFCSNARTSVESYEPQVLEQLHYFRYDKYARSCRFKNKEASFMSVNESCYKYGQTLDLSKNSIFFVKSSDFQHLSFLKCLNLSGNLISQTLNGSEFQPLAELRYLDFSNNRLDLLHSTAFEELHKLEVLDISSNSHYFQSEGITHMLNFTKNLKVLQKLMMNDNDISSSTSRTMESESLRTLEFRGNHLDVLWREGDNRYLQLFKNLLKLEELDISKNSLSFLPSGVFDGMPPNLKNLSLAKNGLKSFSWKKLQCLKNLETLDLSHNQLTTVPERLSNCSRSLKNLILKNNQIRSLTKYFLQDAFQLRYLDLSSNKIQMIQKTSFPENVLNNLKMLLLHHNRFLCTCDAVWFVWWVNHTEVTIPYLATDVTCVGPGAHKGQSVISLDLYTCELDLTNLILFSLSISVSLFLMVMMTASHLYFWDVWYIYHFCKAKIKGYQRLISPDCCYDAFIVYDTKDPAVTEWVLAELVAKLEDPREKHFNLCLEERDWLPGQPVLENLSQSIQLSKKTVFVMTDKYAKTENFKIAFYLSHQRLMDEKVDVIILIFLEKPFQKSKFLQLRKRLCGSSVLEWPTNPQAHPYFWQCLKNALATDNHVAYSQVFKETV
Observed Property: EC50 (µM)

Here's what some known entries look like.
>>> quantitative_result("CCCN(CCC)C(=O)C1=Cc2ccc(-c3cccc(S(=O)(=O)N(C)CCO)c3)cc2N=C(N)C1")
20
>>> quantitative_result("CCCN(CCC)C(=O)C1=Cc2ccc(-c3cccc(S(=O)(=O)N4CCC(O)CC4)c3)cc2N=C(N)C1")
17
>>> quantitative_result("CCCN(CCC)C(=O)C1=Cc2ccc(-c3cccc(S(=O)(=O)NCCO)c3)cc2N=C(N)C1")
7
>>> quantitative_result("CCCN(CCC)C(=O)C1=Cc2ccc(-c3cccc(S(=O)(=O)N4CC[C@@H](O)C4)c3C)cc2N=C(N)C1")
14

a. CCCN(CCC)C(=O)C1=Cc2ccc(-c3cncc(S(N)(=O)=O)c3)cc2N=C(N)C1
b. CCCN(CCC)C(=O)C1=Cc2ccc(-c3cccc(S(N)(=O)=O)c3)cc2N=C(N)C1
Req: Kindly identify the item with the lower EC50 figure among these two: a and b Mark your selection by writing its label.
Resp: b

Reference source for all entries: patent US9890124B2
